target: Entamoeba invadens chitinase 4 (rEiCht4) (Entamoeba invadens, UniProt A0A0A1TXF4)
Sequence (A0A0A1TXF4 entry or part of it): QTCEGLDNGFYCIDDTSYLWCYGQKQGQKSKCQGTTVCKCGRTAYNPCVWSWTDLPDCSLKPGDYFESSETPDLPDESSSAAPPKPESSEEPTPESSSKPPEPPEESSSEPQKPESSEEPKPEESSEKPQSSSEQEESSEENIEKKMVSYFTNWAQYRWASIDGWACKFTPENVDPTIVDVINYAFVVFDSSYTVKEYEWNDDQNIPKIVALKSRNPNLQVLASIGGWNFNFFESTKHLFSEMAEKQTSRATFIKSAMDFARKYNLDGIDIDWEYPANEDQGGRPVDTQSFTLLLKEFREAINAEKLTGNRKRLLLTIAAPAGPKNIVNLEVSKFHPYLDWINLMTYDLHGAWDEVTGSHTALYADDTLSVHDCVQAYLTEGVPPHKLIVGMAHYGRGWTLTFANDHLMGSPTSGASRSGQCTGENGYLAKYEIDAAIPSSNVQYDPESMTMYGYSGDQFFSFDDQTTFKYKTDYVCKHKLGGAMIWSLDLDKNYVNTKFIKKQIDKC
test.method.notes: fluorogenic 4MU-(GlcNAc)[…] hydrolysis assay with purified recombinant enzyme
pIC50: −log10 of the molar value.

>  <item.smiles>
Cc1nn(C)c(C)c1NS(=O)(=O)c1c(Cl)cc(-c2ccnc(N3CCNCC3)c2)cc1Cl

>  <pIC50>
5.60

$$$$

###

target: Entamoeba invadens chitinase 1 (rEiCht1) (Entamoeba invadens, UniProt A0A0A1U6V8)
Sequence (A0A0A1U6V8 entry or part of it): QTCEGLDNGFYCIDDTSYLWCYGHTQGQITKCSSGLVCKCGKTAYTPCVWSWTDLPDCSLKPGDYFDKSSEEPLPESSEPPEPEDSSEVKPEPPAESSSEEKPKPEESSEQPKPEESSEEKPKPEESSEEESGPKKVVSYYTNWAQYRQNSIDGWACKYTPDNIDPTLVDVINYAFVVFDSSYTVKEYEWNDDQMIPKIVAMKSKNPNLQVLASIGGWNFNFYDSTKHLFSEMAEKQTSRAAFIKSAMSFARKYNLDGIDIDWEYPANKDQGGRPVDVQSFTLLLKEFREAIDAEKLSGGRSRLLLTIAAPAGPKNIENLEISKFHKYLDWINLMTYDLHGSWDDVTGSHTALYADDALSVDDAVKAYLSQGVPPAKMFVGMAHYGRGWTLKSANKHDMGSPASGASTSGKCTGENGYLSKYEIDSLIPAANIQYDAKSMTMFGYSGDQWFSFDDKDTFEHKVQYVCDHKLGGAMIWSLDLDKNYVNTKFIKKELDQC
test.method.notes: fluorogenic 4MU-(GlcNAc)[…] hydrolysis assay with purified recombinant enzyme

>  <compound>
Cc1nn(C)c(C)c1NS(=O)(=O)c1c(Cl)cc(-c2ccnc(N3CCNCC3)c2)cc1Cl [D-B-09]

>  <result.units>
nM

>  <IC50>
800

$$$$

Each recorded value in this set is attributed to paper PMC8552601.
